Assay: protein stability index of a GFP-peptide fusion (yeast GPS) (PSI 1-4); higher = more stable; sorted into four equal gates, so the index is relative within each strain
Settings: doa10∆
Output True for protein stability index not less than 3; output False otherwise.

{"MONOMER SEQUENCE": "NPLAKTMADAVRELGIL [SEC65]", "ANSWER LABEL": "False"}
{"MONOMER SEQUENCE": "MNKDQAEKYQERSLRQK [SNM1]", "ANSWER LABEL": "True"}
{"MONOMER SEQUENCE": "SYINVTFRAVVFKPFLG [RPC25]", "ANSWER LABEL": "False"}
{"MONOMER SEQUENCE": "YPEVVTPYNIDRLTQLV [RPO21]", "ANSWER LABEL": "False"}
{"MONOMER SEQUENCE": "SRGNGGKKVLNKNQLLK [POP1]", "ANSWER LABEL": "False"}
{"MONOMER SEQUENCE": "DDTAANNGDKDHLKLVS [YIL149C/MLP2]", "ANSWER LABEL": "True"}
{"MONOMER SEQUENCE": "FSEEKAEEFDFNVPVVS [YAR002W/NUP60]", "ANSWER LABEL": "False"}
